# subject-of-test: T1, PDZRN3_1, Q9UPQ7
# T1 sequence (Q9UPQ7 244-349, limits assumed, looked up): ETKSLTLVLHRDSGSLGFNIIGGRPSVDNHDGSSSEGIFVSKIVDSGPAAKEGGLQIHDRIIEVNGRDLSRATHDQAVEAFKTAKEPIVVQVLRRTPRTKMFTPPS
# procedure-summary: holdup assay
# Set-up: key: below the threshold = too weak to quantify, mostly under pKd 3.1 to 4
# condition-context: plain residues with an end cap or a label only (N-terminal biotin on a linker: ado-ado)
result-type: pKd
Output: the number by itself.

Recorded results for 8 binders are shown here.
> print(dat)
                          binder  result.type  measured.result
1     TKDKVQETQI [LRRC4, Q9HBW1]          pKd              4.4
2     NKSEPFLTWL [WWTR1, Q9GZV5]          pKd             3.76
3    NSTHNLKDYV [CLDN20, P56880]          pKd             3.83
4      RDYTQSSSSL [GRM5, P41594]          pKd             3.56
5  EAVTVESTSL [SLC22A11, Q9NSA0]          pKd             4.24
6    HYPASPDSWV [CTNND2, Q9UQB3]          pKd             3.83
7  QLKSGRDSTV [TMEM178A, Q8NBL3]          pKd             3.74
8      THREVKFTSL [CD46, P15529]          pKd             4.27

Attention now turns to another entry.
Query block: Record request: pKd value, item ATKDKKITTV [EXOC4, Q96A65]
Result block: 3.52

The measurements presented in this section are drawn from paper PMC9482650.
